System: Hepatocyte
measurement.protocol: Metabolic stability in human hepatocytes measured per 10^6 cells
Type: ADME, cell-based
Note to self: values exactly at 6 µL/min are Criterion met. So Stability at or above 6 µL/min is Criterion met, below is Criterion not met.

Consider the following illustrative entries.
In [3]: df
Out[3]:
                              smiles_record  experimental_target       answer_label
0  O=C(Nc1cc(Cl)c(O)cc1OC[C@@H](O)CN1CCC2(CC1)Cc1cc(Cl)ccc1O2)NC1CC1           Hepatocyte      Criterion met
1  O=C(Nc1ccc(O)cc1OC[C@@H](O)CN1CCC2(CC1)Cc1cc(F)ccc1O2)NC1CC1           Hepatocyte  Criterion not met
2  CNC(=O)Nc1ccc(O)cc1OC[C@@H](O)CN1CCC2(CC1)Cc1cc(Cl)ccc1O2           Hepatocyte  Criterion not met
3  CNC(=O)Nc1ccc(O)cc1OC[C@@H](O)CN1CCC2(CC1)Cc1cc(F)ccc1O2           Hepatocyte      Criterion met

(Q) Hi team, for NC(=O)Nc1ccc(F)cc1OC[C@@H](O)CN1CCC2(CC1)Cc1cc(Cl)ccc1O2 , is the recorded Stability at or above 6 µL/min?
(A) Criterion not met

Data origin, for the record: ChEMBL document CHEMBL3098005
